Where do the numbers come from? From paper PMC2882941.

- Target System: hASBT (Homo sapiens, UniProt Q12908)
- Sequence (Q12908 whole entry): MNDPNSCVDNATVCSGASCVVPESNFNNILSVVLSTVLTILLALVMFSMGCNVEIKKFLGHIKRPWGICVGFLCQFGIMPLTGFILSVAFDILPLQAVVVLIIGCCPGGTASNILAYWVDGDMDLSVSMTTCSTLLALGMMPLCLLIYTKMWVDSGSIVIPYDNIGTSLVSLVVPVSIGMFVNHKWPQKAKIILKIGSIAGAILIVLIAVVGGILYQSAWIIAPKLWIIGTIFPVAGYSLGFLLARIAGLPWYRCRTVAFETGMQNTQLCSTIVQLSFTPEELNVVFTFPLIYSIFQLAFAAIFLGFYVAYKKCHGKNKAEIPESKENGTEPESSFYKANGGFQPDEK
- Procedure Details: in vitro
- Experimental Setup: MDCK

Compound | Papp
C[C@H](CCC(=O)NCCS(=O)(=O)O)[C@H]1CC[C@H]2[C@@H]3[C@H](O)C[C@@H]4C[C@H](O)CC[C@]4(C)[C@H]3C[C@H](O)[C@]12C [TCA, Taurocholate] | 0.089 to 0.3 ×10⁻⁶ cm/s
